molecular target: Gamma-secretase; test: Modulation of gamma secretase in human SH-SY5Y cells overexpressing wild type APP751 assessed as inhibition of amyloid beta (35 to 42 residues) formation incubated for overnight by ELISA; format: cell-based
measurement-type: pIC50
Reminder that pIC50 is minus the log10 of a molar concentration.

Record lookup: for Gamma-secretase, what pIC50 belongs to COc1nc(-c2csc(Nc3c4c(nn3CCF)CCC4)n2)ccc1-n1cnc(C)c1 ? 7.19

Record lookup: for Gamma-secretase, what pIC50 belongs to COc1nc(-c2csc(Nc3c4c(nn3CCF)CCCC4)n2)ccc1-n1cnc(C)c1 ? 7.33

Record lookup: for Gamma-secretase, what pIC50 belongs to COc1nc(-c2csc(Nc3cc(C(C)(C)C)nn3CCF)n2)ccc1-n1cnc(C)c1 ? 7.14

Record lookup: for Gamma-secretase, what pIC50 belongs to COc1nc(-c2csc(Nc3c4c(nn3CC(F)(F)F)CCC4)n2)ccc1-n1cnc(C)c1 ? 7.44

Record lookup: for Gamma-secretase, what pIC50 belongs to COc1nc(-c2csc(Nc3c4c(nn3CCN3CCOCC3)CCCC4)n2)ccc1-n1cnc(C)c1 ? 6.75

Record lookup: for Gamma-secretase, what pIC50 belongs to COc1nc(-c2csc(Nc3c4c(nn3C3CCOCC3)CCCC4)n2)ccc1-n1cnc(C)c1 ? 6.99

Record lookup: for Gamma-secretase, what pIC50 belongs to CCn1nc(C(C)(C)C)cc1Nc1nc(-c2ccc(-n3cnc(C)c3)c(OC)n2)cs1 ? 6.94

Record lookup: for Gamma-secretase, what pIC50 belongs to COc1nc(-c2csc(Nc3cc(C(C)(C)C)nn3C(C)C)n2)ccc1-n1cnc(C)c1 ? 7.19

Record lookup: for Gamma-secretase, what pIC50 belongs to CCn1nc2c(c1Nc1nc(-c3ccc(-n4cnc(C)c4)cc3)cs1)CCCC2 ? 6.18

Record lookup: for Gamma-secretase, what pIC50 belongs to Cc1cn(-c2ccc(-c3csc(Nc4cc(C(C)(C)C)nn4C)n3)cc2)cn1 ? 6.56

Record lookup: for Gamma-secretase, what pIC50 belongs to COc1nc(-c2csc(Nc3c4c(nn3CCN3CCCCC3)CCCC4)n2)ccc1-n1cnc(C)c1 ? 6.68

Record lookup: for Gamma-secretase, what pIC50 belongs to CCn1nc(C2(C)CC2)cc1Nc1nc(-c2ccc(-n3cnc(C)c3)c(OC)n2)cs1 ? 7.49

Record lookup: for Gamma-secretase, what pIC50 belongs to CCn1nc(C(C)(C)C)cc1Nc1nc(-c2ccc(-n3cnc(C)c3)c(OC)c2)cs1 ? 7.02

Record lookup: for Gamma-secretase, what pIC50 belongs to COc1nc(-c2csc(Nc3c4c(nn3CCCN3CCOCC3)CCCC4)n2)ccc1-n1cnc(C)c1 ? 6.90

Record lookup: for Gamma-secretase, what pIC50 belongs to COc1nc(-c2csc(Nc3cc(C(C)(C)C)nn3C)n2)ccc1-n1cnc(C)c1 ? 6.87

Record lookup: for Gamma-secretase, what pIC50 belongs to CCn1nc(C(C)C)cc1Nc1nc(-c2ccc(-n3cnc(C)c3)c(OC)n2)cs1 ? 6.74

Record lookup: for Gamma-secretase, what pIC50 belongs to COc1nc(-c2csc(Nc3c4c(nn3C3CCCC3)CCCC4)n2)ccc1-n1cnc(C)c1 ? 7.08

Record lookup: for Gamma-secretase, what pIC50 belongs to COc1nc(-c2csc(Nc3c4c(nn3C)CCC4)n2)ccc1-n1cnc(C)c1 ? 7.10

Record lookup: for Gamma-secretase, what pIC50 belongs to COc1nc(-c2csc(Nc3cc(C(C)(C)C)nn3C(C)(C)C)n2)ccc1-n1cnc(C)c1 ? 7.40

Record lookup: for Gamma-secretase, what pIC50 belongs to CCn1nc2c(c1Nc1nc(-c3ccc(-n4cnc(C)c4)c(O)n3)cs1)CCCC2 ? 6.33

Record lookup: for Gamma-secretase, what pIC50 belongs to COc1nc(-c2csc(Nc3c4c(nn3CC(F)(F)F)CCCC4)n2)ccc1-n1cnc(C)c1 ? 7.24

Record lookup: for Gamma-secretase, what pIC50 belongs to COCCn1nc2c(c1Nc1nc(-c3ccc(-n4cnc(C)c4)c(OC)n3)cs1)CCCC2 ? 6.84

Record lookup: for Gamma-secretase, what pIC50 belongs to CCn1nc2c(c1Nc1nc(-c3cnc(-n4cnc(C)c4)c(OC)n3)cs1)CCCC2 ? 7.05

Record lookup: for Gamma-secretase, what pIC50 belongs to CCCn1nc2c(c1Nc1nc(-c3ccc(-n4cnc(C)c4)c(OC)n3)cs1)CCCC2 ? 7.32

Record lookup: for Gamma-secretase, what pIC50 belongs to CCn1nc2c(c1Nc1nc(-c3ccc(-n4cnc(C)c4)c(OC)n3)cs1)CCC2 ? 7.48

Record lookup: for Gamma-secretase, what pIC50 belongs to CCn1nc2c(c1N(C)c1nc(-c3ccc(-n4cnc(C)c4)c(OC)n3)cs1)CCCC2 ? 6.20

Record lookup: for Gamma-secretase, what pIC50 belongs to COc1cc(-c2csc(Nc3cc(C(C)(C)C)nn3C)n2)ccc1-n1cnc(C)c1 ? 6.60

Record lookup: for Gamma-secretase, what pIC50 belongs to COc1nc(-c2csc(Nc3cc(C(C)(C)C)nn3CC(F)(F)F)n2)ccc1-n1cnc(C)c1 ? 7.14

Record lookup: for Gamma-secretase, what pIC50 belongs to CCn1nc(C(F)(F)F)cc1Nc1nc(-c2ccc(-n3cnc(C)c3)c(OC)n2)cs1 ? 7.24

Record lookup: for Gamma-secretase, what pIC50 belongs to COc1nc(-c2csc(Nc3c4c(nn3C(C)(C)C)CCC4)n2)ccc1-n1cnc(C)c1 ? 7.21

---

Would you mind telling me the reported AUC of each entry?
assay: AUC infinity in CD-1 mouse at 1 mg/kg, iv administered as single dose measured up to 24 hrs; format: ADME, organism-based; design: route intravenous, dose 1 mg/kg, time <=24; details: in vivo
Return type: number; implicit unit ng·h/mL.

Given CCn1nc2c(c1Nc1nc(-c3ccc(-n4cnc(C)c4)c(OC)n3)cs1)CCC2 , state its recorded AUC. 383

Given CCn1nc(C2(C)CC2)cc1Nc1nc(-c2ccc(-n3cnc(C)c3)c(OC)n2)cs1 , state its recorded AUC. 1378

Given COc1nc(-c2csc(Nc3c4c(nn3CCF)CCCC4)n2)ccc1-n1cnc(C)c1 , state its recorded AUC. 288

Given CCn1nc2c(c1Nc1nc(-c3ccc(-n4cnc(C)c4)c(OC)n3)cs1)CCCC2 , state its recorded AUC. 463

Given CCn1nc(C(F)(F)F)cc1Nc1nc(-c2ccc(-n3cnc(C)c3)c(OC)n2)cs1 , state its recorded AUC. 623

---

Would you mind telling me the reported Tmax of each entry?
test: Tmax in CD-1 mouse at 5 mg/kg, po administered as single dose measured up to 24 hrs; type: ADME, organism-based; details: in vivo
Return type: number; implicit unit h.

Given COc1nc(-c2csc(Nc3c4c(nn3C)CCC4)n2)ccc1-n1cnc(C)c1 , state its recorded Tmax. 1

Given COc1nc(-c2csc(Nc3c4c(nn3CCF)CCCC4)n2)ccc1-n1cnc(C)c1 , state its recorded Tmax. 1

Given CCn1nc(C2(C)CC2)cc1Nc1nc(-c2ccc(-n3cnc(C)c3)c(OC)n2)cs1 , state its recorded Tmax. 2

Given CCn1nc2c(c1Nc1nc(-c3ccc(-n4cnc(C)c4)c(OC)n3)cs1)CCCC2 , state its recorded Tmax. 0.25

Given CCn1nc2c(c1Nc1nc(-c3ccc(-n4cnc(C)c4)c(OC)n3)cs1)CCC2 , state its recorded Tmax. 0.25

Given CCn1nc(C(F)(F)F)cc1Nc1nc(-c2ccc(-n3cnc(C)c3)c(OC)n2)cs1 , state its recorded Tmax. 1

---

Would you mind telling me the reported Stabilty of each entry?
test: Metabolic stability in mouse liver microsomes assessed as parent compound remaining at 1 uM incubated for 30 mins; assay type: ADME, Microsome; details: 0.5 h
Return type: number; implicit unit %.

Given COc1nc(-c2csc(Nc3c4c(nn3C(C)(C)C)CCC4)n2)ccc1-n1cnc(C)c1 , state its recorded Stabilty. 20

Given COc1nc(-c2csc(Nc3c4c(nn3CC(F)(F)F)CCC4)n2)ccc1-n1cnc(C)c1 , state its recorded Stabilty. 46

Given COc1nc(-c2csc(Nc3c4c(nn3C(C)(C)C)CCCC4)n2)ccc1-n1cnc(C)c1 , state its recorded Stabilty. 23

Given COCCn1nc2c(c1Nc1nc(-c3ccc(-n4cnc(C)c4)c(OC)n3)cs1)CCCC2 , state its recorded Stabilty. 29

Given CCn1nc2c(c1Nc1nc(-c3ccc(-n4cnc(C)c4)c(OC)n3)cs1)CCCC2 , state its recorded Stabilty. 64

Given COc1nc(-c2csc(Nc3c4c(nn3C3CCOC3)CCCC4)n2)ccc1-n1cnc(C)c1 (racemic) , state its recorded Stabilty. 70

Given COc1nc(-c2csc(Nc3c4c(nn3CC(C)(C)O)CCCC4)n2)ccc1-n1cnc(C)c1 , state its recorded Stabilty. 78

Given Cc1cn(-c2ccc(-c3csc(Nc4c5c(nn4C)CCCC5)n3)cc2)cn1 , state its recorded Stabilty. 84

Given CCn1nc(C(C)(C)C)cc1Nc1nc(-c2ccc(-n3cnc(C)c3)c(OC)n2)cs1 , state its recorded Stabilty. 67
